Each recorded value in this set is attributed to patent US20150299285A1.

Reported % Insulin Activity (in vitro; assay not stated) values for a set of binders
# assayedSystem: human IGF-1 receptor (human, UniProt P08069 31-1367)
# testName: cell-based or functional assay
Bridges are numbered along the chain shown (N, C = ends). Where no end group is shown, it is not given here.

These solved cases illustrate the format of a correct answer.
MIU-69: B0, A14-PEG10K di-PEGylated B^1(H5,Y16,L17)25-C^1(K8)-A^1(K14, N18,21) (ligand, disulfide 18-56, 42-47, 6-43) {PEG 10 kDa}-GPEHLCGAELVDALYLVCGDRGFYGYGSSSRKAPQTGIVDECCFRSCDLK(PEG 10 kDa)RLENYCN
< 0.1%
MIU-67: B0, C8-PEG10K di-PEGylated B^1(H5,Y16,L17)25-C^1(K8)-A^1(N18,21) (ligand, disulfide 18-56, 42-47, 6-43) {PEG 10 kDa}-GPEHLCGAELVDALYLVCGDRGFYGYGSSSRK(PEG 10 kDa)APQTGIVDECCFRSCDLRRLENYCN
< 0.1%

Next:
Value lookup for % Insulin Activity (in vitro; assay not stated); key = MIU-68: B0, B22-PEG10K di-PEGylated B^1(H5,Y16,L17, K22)25-C^1(K8)-A^1(N18,21) (ligand, disulfide 18-56, 42-47, 6-43) {PEG 10 kDa}-GPEHLCGAELVDALYLVCGDK(PEG 10 kDa)GFYGYGSSSRKAPQTGIVDECCFRSCDLRRLENYCN
< 0.1%
